Below, each of the compounds is paired with its reported inhibition at 0.01 µM value.
- target-or-system: Human adrenergic α2B receptor (Homo sapiens)
- Sequence (P18089 whole entry): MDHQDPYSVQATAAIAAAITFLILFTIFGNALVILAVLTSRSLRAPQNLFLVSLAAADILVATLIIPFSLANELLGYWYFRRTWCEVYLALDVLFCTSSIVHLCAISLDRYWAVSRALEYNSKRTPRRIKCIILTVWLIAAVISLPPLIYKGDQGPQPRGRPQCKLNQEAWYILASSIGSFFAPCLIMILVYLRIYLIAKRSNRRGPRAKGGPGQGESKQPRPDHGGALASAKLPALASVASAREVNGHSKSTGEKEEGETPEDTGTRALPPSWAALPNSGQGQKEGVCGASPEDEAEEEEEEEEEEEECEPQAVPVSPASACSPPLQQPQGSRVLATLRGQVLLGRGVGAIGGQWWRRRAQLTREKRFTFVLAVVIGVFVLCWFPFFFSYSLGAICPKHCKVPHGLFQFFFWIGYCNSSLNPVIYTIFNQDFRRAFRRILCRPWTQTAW
- test-description: Radioligand binding, adrenergic α2B (Protocol Group B)
- Design: purchased Milipore (Millipore)
- run-conditions: 10 nM compound; Protocol Group B; read-out: Percentage inhibition of ligand binding, Adrenergic α2B (10 nM)
Provide the reading as a plain figure in %.

Example results:
{"columns": ["compound", "value-reported"],
 "data": [
  ["CC(O)(Cn1c2c(c3cc(C(F)(F)F)ccc31)CN1CCCC1C2)c1cccnc1 (centres unmarked) [85b]", -7],
  ["Cc1ccc2c(c1)c1c(n2CC(C)(O)c2cccnc2)CC2CCCN2C1 (single isomer, unassigned) [38b]", 38]
]}

Which value of inhibition at 0.01 µM has been reported for Cc1cc(F)cc2c3c(n(CC(C)(O)c4ccncc4)c12)CCN1CCCC31 (single isomer, unassigned) [77a] in the records?
12

What value of inhibition at 0.01 µM has been reported for the following compound? Cc1cc(F)cc2c3c(n(CC(C)(O)c4cccnc4)c12)CCN1CCCC31 (centres unmarked) [75b]
-10

Endpoint output: inhibition at 0.01 µM of Cc1cc(F)cc2c3c(n(CC(C)(O)c4cccnc4)c12)CC1CCCN1C3 (single isomer, unassigned) [76d] . Value?
51

Look up inhibition at 0.01 µM: OC(Cn1c2c(c3cc(F)ccc31)C1CCCN1CC2)c1ccncc1 (single isomer, unassigned) [18b]
94

Recorded inhibition at 0.01 µM of Cc1ccc2c(c1)c1c(n2CC(C)(O)c2ccc(OCC3CC3)nc2)CCN(C)C1 (centres unmarked) [compound 56] , please.
17

Which inhibition at 0.01 µM is listed for Cc1ccc2c(c1)c1c(n2CC(C)(O)c2ccnc(F)c2)CCN2CCCC12 (single isomer, unassigned) [48a] ?
93

----------
- target-or-system: UniProtKB P08913
- Sequence (P08913 whole entry): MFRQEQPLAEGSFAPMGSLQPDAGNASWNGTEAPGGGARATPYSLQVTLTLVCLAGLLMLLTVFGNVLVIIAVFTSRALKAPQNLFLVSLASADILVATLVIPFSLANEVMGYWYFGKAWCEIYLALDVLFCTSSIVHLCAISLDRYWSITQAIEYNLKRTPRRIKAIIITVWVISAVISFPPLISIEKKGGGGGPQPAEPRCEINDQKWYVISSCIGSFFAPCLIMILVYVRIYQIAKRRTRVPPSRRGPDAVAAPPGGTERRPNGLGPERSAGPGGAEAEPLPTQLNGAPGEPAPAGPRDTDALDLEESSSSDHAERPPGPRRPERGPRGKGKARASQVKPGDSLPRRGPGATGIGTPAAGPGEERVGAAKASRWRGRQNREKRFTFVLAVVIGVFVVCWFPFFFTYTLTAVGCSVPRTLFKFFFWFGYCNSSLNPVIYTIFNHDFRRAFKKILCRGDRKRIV
- test-description: Radioligand binding, adrenergic α2A (Protocol Group B)
- Design: purchased Milipore (Millipore)
- run-conditions: 0.1 μM compound; Protocol Group B; 0.1 µM
The reader will find reported Percentage inhibition of ligand binding, Adrenergic α2A (0.1 μM) values listed item by item below.
# value in %; strip the unit string

// below: answered molecules
{"columns": ["molecule", "value-reported"],
 "data": [
  ["Cc1cc(C)c2c(c1)c1c(n2CC(C)(O)c2ccncc2)CCN2CCCC12 (single isomer, unassigned) [19c]", "−7"],
  ["Cc1ccc2c(c1)c1c(n2CC(O)c2ccncc2)CNC2CCCC12 (single isomer, unassigned) [34d]", "−2"],
  ["Cc1ccc2c(c1)c1c(n2CC(OCC2CCC2)c2ccncc2)CCN2CCCC12 (single isomer, unassigned) [138b]", 82]
]}

// Percentage inhibition of ligand binding, Adrenergic α2A (0.1 μM) lookup, key: Cc1ccc2c(c1)c1c(n2CC(C)(O)c2ccc(F)cc2)CC2CCC1N2C (single isomer, unassigned) [102c]
−12

Reported Percentage inhibition of ligand binding, Adrenergic α2A (0.1 μM), molecule Cc1cc(F)c2c(c1)c1c(n2CC(C)(O)c2ccncc2)CC2CCCN2C1 (single isomer, unassigned) [62a] : ____
14

What measured Percentage inhibition of ligand binding, Adrenergic α2A (0.1 μM) goes with CC(O)(Cn1c2c(c3cc(Cl)cc(F)c31)CN1CCCC1C2)c1cccnc1 (single isomer, unassigned) [63d] ?
−13

Look at this molecule and give its reported Percentage inhibition of ligand binding, Adrenergic α2A (0.1 μM). OC(Cn1c2c(c3cc(Cl)cc(F)c31)C1CCCN1CC2)c1ccncc1 (single isomer, unassigned) [135d]
0

Suppose we examine the molecule Cc1ccc2c(c1)c1c(n2CC(O)c2ccncc2)CCN2CCCC12 (single isomer, unassigned) [Compound No. 178b] ; what Percentage inhibition of ligand binding, Adrenergic α2A (0.1 μM) value has been reported?
55

Reported Percentage inhibition of ligand binding, Adrenergic α2A (0.1 μM) for Cc1ccc2c(c1)c1c(n2CC(C)(O)c2cccnc2)CC2CCCN2C1 (stereo not drawn) [41d] : what is it?
−7

Give the measured Percentage inhibition of ligand binding, Adrenergic α2A (0.1 μM) of Cc1ccc2c(c1)c1c(n2CC(C)(O)c2ccncc2)CCN2CCCC12 (single isomer, unassigned) [13d] .
3

# Percentage inhibition of ligand binding, Adrenergic α2A (0.1 μM) lookup, item Cc1ccc2c(c1)c1c(n2CC(O)c2ccncc2)CN(C)C2CCCC12 (single isomer, unassigned) [36b]
−7

Entry Cc1ccc2c(c1)c1c(n2CC(C)(O)c2cnc3ccccc3c2)CCN(C)C1 (single isomer, unassigned) [32b] : reported Percentage inhibition of ligand binding, Adrenergic α2A (0.1 μM) = ?
−5

Requested field: Percentage inhibition of ligand binding, Adrenergic α2A (0.1 μM). Item: Cc1cc(F)cc2c3c(n(CC(C)(O)c4cccnc4)c12)CCN1CCCC31 (single isomer, unassigned) [75d]
25

What value of measured Percentage inhibition of ligand binding, Adrenergic α2A (0.1 μM) is listed for OC(Cn1c2c(c3cc(F)ccc31)C1CCCN1CC2)c1ccncc1 (single isomer, unassigned) [18a] ?
−7

Fill in the blank: the reported Percentage inhibition of ligand binding, Adrenergic α2A (0.1 μM) of CN1CCc2c(c3cc(CCO)ccc3n2CC(O)c2ccncc2)C1 (single isomer, unassigned) [140b] is ____.
−11
